TEST NAME: Toxicity test, mortality rate 24 hours after administration
CONDITION NOTES: mouse, in vivo, ip, 250 mg/kg (i.p.)
Where a name gives a salt, the structure may show the parent alone.
OBSERVABLE: mortality at 24 h (%)
Use % as the unit, but write only the number.

Looking for the measured mortality at 24 h of CCN(CCCCc1ccc([N+](=O)[O-])cc1)CCNc1cc(=O)n(C)c(=O)n1C , can you help? 50

Next:
Looking for the measured mortality at 24 h of CCN(CCNCCCCc1ccc([N+](=O)[O-])cc1)c1cc(=O)n(C)c(=O)n1C , can you help? 50

Looking for the measured mortality at 24 h of CCN(CCCc1ccc([N+](=O)[O-])cc1)CCNc1cc(=O)n(C)c(=O)n1C [Compound 4, hydrochloride] , can you help? 0

Looking for the measured mortality at 24 h of Cn1c(NCCN(CCO)CCCc2ccc([N+](=O)[O-])cc2)cc(=O)n(C)c1=O , can you help? 0

###

Recorded measurements of change in vivo at 0.1 mg/kg, one per entry
Test system: ventricular muscle refractory period
TEST NAME: Influence on ventricular muscle refractory period (ERP)
Type: in vivo, mongrel dog
CONDITION NOTES: Canis lupus familiaris, iv; 0.1 mg/kg, i.v.; (W-Y)/Y×100; read-out: ERP (%; extensibility of refractory period)
Where a name gives a salt, the structure may show the parent alone.
Use % as the unit, but write only the number.

Study these solved cases before continuing.
Looking for the measured change in vivo at 0.1 mg/kg of Cn1c(NCCN(CCCc2ccc([N+](=O)[O-])cc2)CCOC(=O)c2ccccc2)cc(=O)n(C)c1=O [Compound 168, oxalate] , can you help? 6

Looking for the measured change in vivo at 0.1 mg/kg of Cn1c(NCCN(CCO)CCCc2ccc([N+](=O)[O-])cc2)cc(=O)n(C)c1=O , can you help? 0

Looking for the measured change in vivo at 0.1 mg/kg of Cn1c(NCCNC(=O)c2ccc([N+](=O)[O-])cc2)cc(=O)n(C)c1=O , can you help? 6.7

Next:
Looking for the measured change in vivo at 0.1 mg/kg of Cn1c(N2CCN(CC(O)c3ccc([N+](=O)[O-])cc3)CC2)cc(=O)n(C)c1=O (stereo not drawn) [Compound 44, hydrochloride] , can you help? 0

Looking for the measured change in vivo at 0.1 mg/kg of Cn1c(N2CCN(CCCOc3ccc(C(=O)c4ccccc4)cc3[N+](=O)[O-])CC2)cc(=O)n(C)c1=O [Compound 78, oxalate] , can you help? 6.7

Looking for the measured change in vivo at 0.1 mg/kg of C=CCOc1cc([N+](=O)[O-])ccc1OCCCN1CCN(c2cc(=O)n(C)c(=O)n2C)CC1 [Compound 161, hydrochloride] , can you help? 0

Looking for the measured change in vivo at 0.1 mg/kg of CCN(CCNc1cc(=O)n(C)c(=O)n1C)CCc1ccc([N+](=O)[O-])cc1 , can you help? 7

Looking for the measured change in vivo at 0.1 mg/kg of Cn1c(N2CCN(CCCCc3ccc([N+](=O)[O-])cc3)CC2)cc(=O)n(C)c1=O [Compound 34, hydrochloride] , can you help? 6

Looking for the measured change in vivo at 0.1 mg/kg of CC(=O)OCCN(CCCc1ccc([N+](=O)[O-])cc1)CCNc1cc(=O)n(C)c(=O)n1C [Compound 167, oxalate] , can you help? 8

Looking for the measured change in vivo at 0.1 mg/kg of Cn1c(N2CCN(CCCOc3cccc([N+](=O)[O-])c3)CC2)cc(=O)n(C)c1=O [Compound 38, hydrochloride] , can you help? 0

Looking for the measured change in vivo at 0.1 mg/kg of COC(=O)CN(CCCNc1ccc([N+](=O)[O-])cc1)CCNc1cc(=O)n(C)c(=O)n1C [Compound 166, hydrochloride] , can you help? 6.7

Looking for the measured change in vivo at 0.1 mg/kg of CC(=O)c1cc([N+](=O)[O-])ccc1OCCCN1CCN(c2cc(=O)n(C)c(=O)n2C)CC1 [Compound 76, oxalate] , can you help? 2.4
